experiment: Half life in human microsomal liver cells; type: ADME; conditions: liver microsomes
// boundary case: half-life equal to 1 h maps to N; strictly smaller maps to Y

O=C1CC[C@](CCN2CC(N3CCOCC3)C2)(c2ccc(Cl)c(Cl)c2)CN1CC1CCCCC1	Y
CS(=O)(=O)N1CCN(C2CN(CC[C@]3(c4ccc(Cl)c(Cl)c4)CCC(=O)N(CC4CC4)C3)C2)CC1	Y
O=C1CC[C@](CCN2CC(N3CCOCC3)C2)(c2ccc(Cl)c(Cl)c2)CN1CC1CC1	N

Strictly below 1 h: is that where half-life of O=C1CC[C@](CCN2CC(N3CCC(F)CC3)C2)(c2ccc(Cl)c(Cl)c2)CN1C1(C2CC2)CCCC1 sits? Y

Please check: half-life for O=C1CC[C@](CCN2CC(N3CCOCC3)C2)(c2ccc(Cl)c(Cl)c2)CN1CC1CCC(F)(F)CC1 , strictly under 1 h or not? N

Determine whether this compound shows half-life lower than 1 h (ties excluded): O=C1CC[C@](CCN2CC(N3CCOCC3)C2)(c2ccc(Cl)c(Cl)c2)CN1C1(C2CC2)CCCC1 Y

Is it true that half-life reported for O=C1CC[C@](CCN2CC(N3CCC(F)CC3)C2)(c2ccc(Cl)c(Cl)c2)CN1CC1CC1 is less than 1 h? N

# TODO verify half-life < 1 h strictly for this compound: O=C1CC[C@](CCN2CC(N3CCC(F)CC3)C2)(c2ccc(Cl)c(Cl)c2)CN1CC1CCC(F)(F)CC1 N

Please determine if NS(=O)(=O)N1CCN(C2CN(CC[C@]3(c4ccc(Cl)c(Cl)c4)CCC(=O)N(CC4CC4)C3)C2)CC1 is below 1 h in terms of half-life. N
